- TEST TARGET: T1, Ang2 immobilized on a biosensor (Octet off-rate screening) (Homo sapiens (Human), UniProt O15123 19-496)
- T1 construct: also called Ang2 antigen; not shown: It is a His tag if hAng2-his (R&D 623-AN/CF) was used, or an Fc if hAng2-Fc (PharmAbcine) was used
- T1 sequence: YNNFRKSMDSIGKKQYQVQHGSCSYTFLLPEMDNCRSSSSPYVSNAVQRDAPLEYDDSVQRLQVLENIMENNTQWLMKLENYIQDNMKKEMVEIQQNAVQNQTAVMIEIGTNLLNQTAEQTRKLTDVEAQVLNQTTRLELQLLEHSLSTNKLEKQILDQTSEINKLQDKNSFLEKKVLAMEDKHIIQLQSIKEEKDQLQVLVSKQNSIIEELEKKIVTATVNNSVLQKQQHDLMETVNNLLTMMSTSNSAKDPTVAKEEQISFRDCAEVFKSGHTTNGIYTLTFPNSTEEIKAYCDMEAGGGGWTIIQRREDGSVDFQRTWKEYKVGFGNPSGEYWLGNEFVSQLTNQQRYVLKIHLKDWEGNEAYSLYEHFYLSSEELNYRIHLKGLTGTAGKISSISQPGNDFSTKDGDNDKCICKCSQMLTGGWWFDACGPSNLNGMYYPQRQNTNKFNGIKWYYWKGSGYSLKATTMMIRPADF
- ASSAY EXPLANATION: Octet (BLI), Ang2 immobilized on biosensor, scFv in solution
# koff annotations
Numeric answer plus unit only.

[[record]]
binder = "No. 4 candidate antibody expressed in the form of scFv (scFv, V domains shown) VH: QVQLVESGAEVKRPGESLRISCKTSGYSFTSYWIHWVRQMPGKELEWMGSIYPGNSDTRYSPSFQGHVTISADSSSSTAYLQWSSLKASDTAMYYCTTEGLMNGLHFDMWGQGTMVTVSS VL: DIVMTQTPLSLPVTPGEPASISCRSSQSLLHSLGDNYLDWYLQKPGQSPQLLIYLGSKRAAGVPDRFSGSGSGTDFTLKISRVEAEDVGVYYCMQSLQTPPYTFGQGTKLEIKR"
result = "0.000212 s⁻¹"


In: Looking for the measured koff of No. 3 candidate antibody expressed in the form of scFv (scFv, V domains shown) VH: QMQLVQSGGGLVQPGRSLKLSCAASGFSFDDYAMHWVRQAPGKGLEWVATIKDDGSQTYYVDSVKGRFTISRDNAKSSLFLQMNSLRAEDTAVYYCTTEGLMNGLHFDMWGQGTMVTVSS VL: LVLTQPPSVSGAPGQGVTISCTGSSSNIGAGYDVHWYQQFPGTAPKLLISGNNNRPSGLPDRFSGSKSGTSASLAITGLQAEDEADYYCQSYDSRLGVVFGGGTKLTVLG , can you help?
Out: 0.000642 s⁻¹

Origin of the recorded values: patent US20220204603A1
